- System: rat chronic carcinogenicity bioassay, TD50
- assay-details: DSSTox (CPDBAS) Carcinogenic Potency Database Summary Rat Bioassay Results
- condition-details: TargetSites_Rat_Female: esophagus; liver; nasal cavity; stronger effect = lower value
Potency reference
parameter: Potency

> print(dat)
                                   molecule           result
1                              CCCN(CCC)N=O  0.186 mg/kg/day
2  C=CCN(CC(C)O)N=O (configuration not stated)  0.877 mg/kg/day

###

- System: rat chronic carcinogenicity bioassay, TD50
- assay-details: DSSTox (CPDBAS) Carcinogenic Potency Database Summary Rat Bioassay Results
- condition-details: TargetSites_Rat_Female: ear Zymbals gland; stronger effect = lower value
parameter: Potency

> print(dat)
                                   molecule          result
1  C[C@]12C=CC(=O)C=C1CC[C@@H]1[C@@H]2[C@@H](O)C[C@@]2(C)[C@H]1CC[C@]2(O)C(=O)COC(=O)CCCc1ccc(N(CCCl)CCCl)cc1  19.2 mg/kg/day

###

- System: rat chronic carcinogenicity bioassay, TD50
- assay-details: DSSTox (CPDBAS) Carcinogenic Potency Database Summary Rat Bioassay Results
- condition-details: TargetSites_Rat_Female: ear Zymbals gland; mammary gland; stronger effect = lower value
parameter: Potency

> print(dat)
                              molecule        result
1  CC(=O)N(C(C)=O)c1cccc2c1Cc1ccccc1-2  19 mg/kg/day

###

- Test system: rat chronic carcinogenicity bioassay, TD50
- assay-details: DSSTox (CPDBAS) Carcinogenic Potency Database Summary Rat Bioassay Results
- condition-details: TD50_Rat_Note: TD50 is harmonic mean of more than one positive test; TargetSites_Rat_Female: liver; urinary bladder; stronger effect = lower value
parameter: Potency

> print(dat)
             molecule  parameter         result
1  CC(=O)Nc1ccc(O)cc1    Potency  495 mg/kg/day

###

- Test system: rat chronic carcinogenicity bioassay, TD50
- assay-details: DSSTox (CPDBAS) Carcinogenic Potency Database Summary Rat Bioassay Results
- condition-details: TD50_Rat_Note: TD50 is harmonic mean of more than one positive test; TargetSites_Rat_Female: ear Zymbals gland; mammary gland; nasal cavity; urinary bladder; stronger effect = lower value
- Text: The Carcinogenic Potency Database (CPDB) is a unique and widely used international resource of the results of over 6500 chronic, long-term animal cancer tests on over 1500 chemical substances. The CPDB provides easy access to the bioassay literature, with qualitative and quantitative analyses of both positive and negative experiments that have been published over the past 50 years in the general literature and by the National Cancer Institute/National Toxicology Program. […]
parameter: Potency

> print(dat)
               molecule                               target.desc  parameter          result
1  CCOc1ccc(NC(C)=O)cc1  rat chronic carcinogenicity bioassay, TD50    Potency  1250 mg/kg/day

###

- System: rat chronic carcinogenicity bioassay, TD50
- assay-details: DSSTox (CPDBAS) Carcinogenic Potency Database Summary Rat Bioassay Results
- condition-details: TargetSites_Rat_Female: mammary gland; stronger effect = lower value
Potency reference
parameter: Potency

> print(dat)
                                    compound                               target.desc           result
 1                      Nc1ccc(-c2ccccc2)cc1  rat chronic carcinogenicity bioassay, TD50   0.98 mg/kg/day
 2  O=C1N(CCO)CCN1/N=C/c1ccc([N+](=O)[O-])o1  rat chronic carcinogenicity bioassay, TD50   16.7 mg/kg/day
 3                   Cc1ncc([N+](=O)[O-])n1C  rat chronic carcinogenicity bioassay, TD50     17 mg/kg/day
 4                             C[N+](=O)[O-]  rat chronic carcinogenicity bioassay, TD50   40.4 mg/kg/day
 5  CC(C)CCC[C@@H](C)[C@H]1CC[C@H]2[C@@H]3CC=C4C[C@@H](OC(=O)Cc5ccc(N(CCCl)CCCl)cc5)CC[C@]4(C)[C@H]3CC[C@]12C  rat chronic carcinogenicity bioassay, TD50  0.523 mg/kg/day
 6            CCNC(=O)Nc1ncc([N+](=O)[O-])s1  rat chronic carcinogenicity bioassay, TD50    131 mg/kg/day
 7      Nc1nc(N)nc(-c2ccc([N+](=O)[O-])o2)n1  rat chronic carcinogenicity bioassay, TD50   1.71 mg/kg/day
 8                               C=Cc1ccccc1  rat chronic carcinogenicity bioassay, TD50   23.3 mg/kg/day
 9  O=C(Nc1nc(-c2ccc([N+](=O)[O-])o2)cs1)C(F)(F)F  rat chronic carcinogenicity bioassay, TD50   6.79 mg/kg/day
10  CC(=O)Nc1nc(NC(C)=O)nc(-c2ccc([N+](=O)[O-])o2)n1  rat chronic carcinogenicity bioassay, TD50   14.1 mg/kg/day
11                CC(=O)Nc1ccc(-c2ccccc2)cc1  rat chronic carcinogenicity bioassay, TD50   1.18 mg/kg/day
12  CC1CN(/N=C/c2ccc([N+](=O)[O-])o2)C(=O)N1 (configuration not stated)  rat chronic carcinogenicity bioassay, TD50   5.34 mg/kg/day

###

- System: rat chronic carcinogenicity bioassay, TD50
- assay-details: DSSTox (CPDBAS) Carcinogenic Potency Database Summary Rat Bioassay Results
- condition-details: TD50_Rat_Note: positive test results only by intraperitoneal or intravenous injection; TargetSites_Rat_Female: ear Zymbals gland; stronger effect = lower value
- From the text: The Carcinogenic Potency Database (CPDB) is a unique and widely used international resource of the results of over 6500 chronic, long-term animal cancer tests on over 1500 chemical substances. The CPDB provides easy access to the bioassay literature, with qualitative and quantitative analyses of both positive and negative experiments that have been published over the past 50 years in the general literature and by the National Cancer Institute/National Toxicology Program. […]
parameter: Potency

> print(dat)
                                   molecule                               target.desc         result
1  Nc1nc(=S)c2ncn([C@H]3C[C@H](O)[C@@H](CO)O3)c2[nH]1  rat chronic carcinogenicity bioassay, TD50  2.1 mg/kg/day

###

- System: rat chronic carcinogenicity bioassay, TD50
- assay-details: DSSTox (CPDBAS) Carcinogenic Potency Database Summary Rat Bioassay Results
- condition-details: TD50_Rat_Note: TD50 is harmonic mean of more than one positive test; TargetSites_Rat_Female: ear Zymbals gland; thyroid gland; uterus; stronger effect = lower value
parameter: Potency

> print(dat)
                  molecule          result
1  Nc1ccc(Sc2ccc(N)cc2)cc1  3.71 mg/kg/day

###

- Tested on: rat chronic carcinogenicity bioassay, TD50
- assay-details: DSSTox (CPDBAS) Carcinogenic Potency Database Summary Rat Bioassay Results
- condition-details: TD50_Rat_Note: TD50 is harmonic mean of more than one positive test; TargetSites_Rat_Female: large intestine; stronger effect = lower value
- Description: The Carcinogenic Potency Database (CPDB) is a unique and widely used international resource of the results of over 6500 chronic, long-term animal cancer tests on over 1500 chemical substances. The CPDB provides easy access to the bioassay literature, with qualitative and quantitative analyses of both positive and negative experiments that have been published over the past 50 years in the general literature and by the National Cancer Institute/National Toxicology Program. […]
parameter: Potency

> print(dat)
                    molecule         result
1                  BrC(Br)Br  648 mg/kg/day
2  Nc1ccc(N=Nc2ccccc2)c(N)n1  303 mg/kg/day

###

- System: rat chronic carcinogenicity bioassay, TD50
- assay-details: DSSTox (CPDBAS) Carcinogenic Potency Database Summary Rat Bioassay Results
- condition-details: TD50_Rat_Note: TD50 is harmonic mean of more than one positive test; TargetSites_Rat_Female: adrenal gland; stronger effect = lower value
Potency reference
parameter: Potency

> print(dat)
                                   compound          result
1  O=C1OC(c2ccc(O)cc2)(c2ccc(O)cc2)c2ccccc21   902 mg/kg/day
2  COc1cc(S(C)=O)ccc1-c1nc2ccncc2[nH]1 (centres undefined)  70.5 mg/kg/day
3      CC1(C)C(=O)Nc2ccc(C3=NNC(=O)CC3)cc21  2.01 mg/kg/day
4  CC(=O)OC/C=C(C)/C=C/C=C(C)/C=C/C1=C(C)CCCC1(C)C   125 mg/kg/day

###

- System: rat chronic carcinogenicity bioassay, TD50
- assay-details: DSSTox (CPDBAS) Carcinogenic Potency Database Summary Rat Bioassay Results
- condition-details: TargetSites_Rat_Female: clitoral gland; uterus; stronger effect = lower value
parameter: Potency

> print(dat)
             molecule  parameter          result
1  Nc1cccc2c(N)cccc12    Potency  69.6 mg/kg/day

Just for reference, PubChem BioAssay AID1208 is where these values come from.
